Test system: KM12 colon
Test: NCI-60 one-dose screen, 48 h
Details: 10 µM unless noted
This is part of a sample that, as a whole, favours compounds with a hit. Of some 83,000 tested, about 20% had one in any assay. The source made the active and inactive calls. The calls were made as follows: active = growth percent below 10; inactive = the rest.
Classes to choose from: active, inactive

Record request — test call for `CC1=C(C)C(=O)C(Nc2cccc(C(=O)OC(C)(C)C)c2)=CC1=O` inactive

Also need `Cn1c(SCC(=O)c2ccc(F)cc2)nc2ccccc2c1=O` , thanks. inactive

Also need `CS(=O)(=O)c1nccc(-c2c(-c3cccc(OCc4ccc(Cl)c(C(F)(F)F)c4)c3)nc3sccn23)n1` , thanks. inactive

Also need `CC(C)(C)OC(=O)Nc1ccc(-c2cccc(Oc3ccc4nnc(Cl)n4n3)c2)cc1` , thanks. inactive

Also need `COc1ccc2c(c1)c(/C=N/Nc1ccnc3cc(Cl)ccc13)cn2C` , thanks. active

Also need `CCOC(=O)c1cccc(NC2=C(Cl)C(=O)C(C)=C(C)C2=O)c1` , thanks. inactive

Also need `O=C(CCCCCCN1CC(=O)N2[C@@H](c3cccs3)c3[nH]c4ccccc4c3C[C@H]2C1=O)NO` , thanks. inactive

Also need `COc1cc(C(=O)c2cc(C(C)=O)c3ccc(C)cn23)cc(OC)c1OC` , thanks. inactive

Also need `COc1ccc(/C(=N\NC(N)=S)c2ccc(Cl)cc2)cc1OC` , thanks. inactive
